Cited source: the supplement of paper PMC9399229

Recorded measurements of relative cell viability, one per entry
Tested on: Hep3B
assayProtocol: relative cell viability (CellTiter-Glo), compound plus cabozantinib, relative to the cabozantinib arm (arm median 1.05; reference not stated) (fraction); higher = more viable cells (less growth inhibition)
settings: cabozantinib 2 µM; 4 days
In all, about 1,900 compounds were measured (“relative cell viability (CellTiter-Glo), compound plus cabozantinib, relative to the cabozantinib arm (arm median 1.05; reference not stated)”: median about 1.1, lowest 2% from about 0.15 on). Only a selection was taken, and the lowest values are over-represented in it overall.

{"compound": "Cc1cccc(-c2nn3c(c2-c2ccnc4ccc(C(N)=O)cc24)CCC3)n1", "relative cell viability": 0.91}
{"compound": "Cc1noc(NS(=O)(=O)c2ccc(N)cc2)c1C [Sulfisoxazole]", "relative cell viability": 1.01}
{"compound": "Cn1c(=O)c2c(ncn2CC(O)CO)n(C)c1=O (centres undefined) [Dyphylline]", "relative cell viability": 1.22}
{"compound": "COc1ccc(C(=O)CC(=O)c2ccc(C(C)(C)C)cc2)cc1 [Avobenzone]", "relative cell viability": 1.1}
{"compound": "CCS(=O)(=O)Nc1ccc2c(c1)/C(=C(/Nc1ccc(CN3CCCCC3)cc1)c1ccccc1)C(=O)N2 [Hesperadin]", "relative cell viability": 0.123}
{"compound": "CN(C)Cc1cccc(N/C(=C2\\C(=O)Nc3cc(C(N)=O)ccc32)c2ccccc2)c1", "relative cell viability": 0.924}
{"compound": "Cn1c(=O)c(F)c(Nc2ccc(I)cc2F)c2c(=O)n(C[C@@H](O)CO)cnc21", "relative cell viability": 0.14}
{"compound": "Cc1[nH]c2ccccc2c1CCNC(=O)c1cccs1", "relative cell viability": 1.18}
{"compound": "COc1cc(F)c(F)c(Nc2ccc(I)cc2F)c1NS(=O)(=O)C1(C[C@H](O)CO)CC1 [Refametinib (RDEA119, Bay 86-9766)]", "relative cell viability": 0.196}
{"compound": "Cc1[nH]c2ccccc2c1CCNCc1ccc(/C=C/C(=O)NO)cc1 [Panobinostat (LBH589)]", "relative cell viability": 0.108}
{"compound": "CC[C@H](c1ccc(O)cc1)[C@@H](CC)c1ccc(O)cc1 [Hexestrol]", "relative cell viability": 1.19}
{"compound": "CC(=O)OCOC(=O)CN(CC(=O)OCOC(C)=O)c1ccccc1OCCOc1ccccc1N(CC(=O)OCOC(C)=O)CC(=O)OCOC(C)=O", "relative cell viability": 1.22}
{"compound": "CC(C)N(CCCNC(=O)Nc1ccc(C(C)(C)C)cc1)C[C@H]1O[C@@H](n2ccc3c(N)ncnc32)[C@H](O)[C@@H]1O", "relative cell viability": 1.07}
{"compound": "CC(C)(C(=O)NCC(F)(F)C(F)(F)F)C(=O)N[C@@H]1C(=O)Nc2ccccc2-c2ccccc21", "relative cell viability": 1.04}
{"compound": "OC[C@H]1OC(O)[C@H](O)[C@@H](O)[C@@H]1O (some centres undefined) [Dextrose]", "relative cell viability": 1.01}
{"compound": "COCC[n+]1c2c(n(Cc3cnccn3)c1C)C(=O)c1ccccc1C2=O [YM155 (Sepantronium Bromide)]", "relative cell viability": 0.129}
{"compound": "Nc1ncnc2n[nH]c(Nc3ccc(F)cc3)c12", "relative cell viability": 1.05}
{"compound": "c1cc(-c2cnn3cc(-c4ccc(N5CCNCC5)cc4)cnc23)c2cccnc2c1", "relative cell viability": 0.148}
{"compound": "COc1cc(-c2cc(-c3ccc(N4CCNCC4)cc3)cnc2C)cc(OC)c1OC", "relative cell viability": 1.01}
